Parameter IC50 of inhibition of human MMP9 activity (cleavage of 5-FAM/QXL 520 FRET peptide, 37°C): see the listing below.
Molecular target: catalytic domain of human MMP9 (human)
Write down the numeric answer in nM and omit the unit.

- binder: "N‐Fc (N‐TIMP3 fused with Fc) (Fc fusion) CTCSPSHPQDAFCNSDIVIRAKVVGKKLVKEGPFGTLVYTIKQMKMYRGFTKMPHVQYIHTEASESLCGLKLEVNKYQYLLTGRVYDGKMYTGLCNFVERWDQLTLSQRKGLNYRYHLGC"
  display unit: "nM"
  numeric result: 1.6
- binder: "v82‐HSA (TIMP3v82 fused with human serum albumin) (protein, additional glycosylation sites) CTCSPSHPQDAFCNSDIVIRAKVVGKKLVKEGPFGTLVYTIKQMKMYRGFTKMPNVTYIHTEASESLCGLNLTVNKYQYLLTGRVYNGTMYTGLCNFVERWDQLTLSQRKGLNYTYHLGCNCKIKSCYYLPCFVTSKNECLWTDMLSNFGYPGYQSKHYACIRQKGGYCSWYRGWAPPDKSIINATDP"
  display unit: "nM"
  numeric result: 7.4

Short answer for Wild‐type TIMP3 (Tissue Inhibitor of Metalloproteinase 3) (natural protein, endogenous glycosylation site at Asn184) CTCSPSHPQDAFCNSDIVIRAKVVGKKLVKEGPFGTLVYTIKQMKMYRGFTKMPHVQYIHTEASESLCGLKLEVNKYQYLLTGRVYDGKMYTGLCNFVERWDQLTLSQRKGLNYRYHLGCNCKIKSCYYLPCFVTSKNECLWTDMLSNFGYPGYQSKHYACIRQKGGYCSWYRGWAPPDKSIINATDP : IC50 of inhibition of human MMP9 activity (cleavage of 5-FAM/QXL 520 FRET peptide, 37°C) was 0.9
